biological target: HIV-1LAI envelope gp120 labeled with radioactive iodine (HIV-1 LAI), P03377; assay: 125I-gp120, peptide array
Each entry below carries its reported counts minus background (counts per 20 min).
quantity-measured: counts minus background (counts per 20 min)

- LILINCKRLKSMTDIYLL (modifications not checked) [CCR5 53-70]: 2
- LNTFQEFFGLNNCSSSNR (modifications not checked) [CCR5 257-274]: 293
- AVRLIFTIMIVYFLFWAP (modifications not checked) [CCR5 233-250]: 62
- GSGDYDSMKEPCFREENA (modifications not checked) [CXCR4 17-34]: -28
- LVMGYQKKLRSMTDKYRL (modifications not checked) [CXCR4 61-78]: 105
- EKVVYVGVWIPALLLTIP (modifications not checked) [CXCR4 153-170]: 147
- CSSSNRLDQAMQVTETLG (modifications not checked) [CCR5 269-286]: 90
- YDSMKEPCFREENANFNK (modifications not checked) [CXCR4 21-38]: 53
- FWKNFQTLKIVILGLVLP (modifications not checked) [CCR5 189-206]: 40
- ALAFFHCCLNPILYAFLG (modifications not checked) [CXCR4 289-306]: 181
- SITEALAFFHCCLNPILY (modifications not checked) [CXCR4 285-302]: 188
- APYNIVLLLNTFQEFFGL (modifications not checked) [CCR5 249-266]: 1960
- SCYCIIISKLSHSKGHQK (modifications not checked) [CXCR4 217-234]: 259
- ALKTTVILILAFFACWLP (modifications not checked) [CXCR4 237-254]: 261
- NKIFLPTIYSIIFLTGIV (modifications not checked) [CXCR4 37-54]: 138
